Please go through the items and note down their pIC50.
# Assayed System: Replicase polyprotein 1a (Severe acute respiratory syndrome-related coronavirus, UniProt P0C6U8)
pIC50: −log10 of the molar value.

Task: Quick one: pIC50 of COc1ccc(-c2nc(SCc3ccccc3)[nH]c(=O)c2C#N)cc1 ?
Result: < 4.30

Task: Which measured pIC50 value corresponds to N#Cc1c(-c2cccc(Cl)c2)nc(SCc2ccccc2)[nH]c1=O ?
Result: < 4.30

Task: Bench note: what pIC50 did N#Cc1c(-c2ccccc2)nc(SCc2ccccc2)[nH]c1=O show?
Result: < 4.30

Task: Entry under review: Cc1ccc(-c2nc(SCCc3ccccc3)[nH]c(=O)c2C#N)cc1 . Reported pIC50?
Result: < 4.30

Task: Query: pIC50; subject: COc1ccc(-c2nc(SCCc3ccccc3)[nH]c(=O)c2C#N)cc1
Result: 4.69

Task: GET /values?readout=pIC50&item= N#Cc1c(-c2ccc(Cl)cc2)nc(SCCc2ccccc2)[nH]c1=O
Result: 4.77

Task: Name the reported pIC50 value associated with the compound Cc1ccc(-c2nc(SCc3ccccc3)[nH]c(=O)c2C#N)cc1
Result: < 4.30

Task: Would you mind telling me what pIC50 value was observed for N#Cc1c(-c2cccc([N+](=O)[O-])c2)nc(SCCc2ccccc2)[nH]c1=O ?
Result: < 4.30

Task: What value of measured pIC50 is listed for N#Cc1c(-c2ccc(Cl)cc2)nc(SCc2ccc([N+](=O)[O-])cc2)[nH]c1=O ?
Result: 5.21

* * *

# Assayed System: Replicase polyprotein 1a (Severe acute respiratory syndrome-related coronavirus, UniProt P0C6U8)
Measured Property: IC50 (µM)
Express the result in µM but write the number alone.

Task: Fill blank: measured IC50 of the molecule N#Cc1c(-c2cccc([N+](=O)[O-])c2)nc(SCc2ccc([N+](=O)[O-])cc2)[nH]c1=O is ____.
Result: 10.6

Task: Returns the measured IC50 for the input molecule. Input: N#Cc1c(-c2ccccc2)nc(SCc2ccc([N+](=O)[O-])cc2)[nH]c1=O
Result: 35.2

Task: Entry COc1ccc(-c2nc(SCc3ccc([N+](=O)[O-])cc3)[nH]c(=O)c2C#N)cc1 : reported IC50 = ?
Result: 26.3
